target: androgen receptor (AR) (Homo sapiens); experiment: Antagonism of compounds on nuclear translocation of androgen receptor (PathHunter NHR cell lines); details: antagonist mode, agonist 6a-Fluorotestosterone 0.06 μM (EC80)
Sequence (P10275 whole entry): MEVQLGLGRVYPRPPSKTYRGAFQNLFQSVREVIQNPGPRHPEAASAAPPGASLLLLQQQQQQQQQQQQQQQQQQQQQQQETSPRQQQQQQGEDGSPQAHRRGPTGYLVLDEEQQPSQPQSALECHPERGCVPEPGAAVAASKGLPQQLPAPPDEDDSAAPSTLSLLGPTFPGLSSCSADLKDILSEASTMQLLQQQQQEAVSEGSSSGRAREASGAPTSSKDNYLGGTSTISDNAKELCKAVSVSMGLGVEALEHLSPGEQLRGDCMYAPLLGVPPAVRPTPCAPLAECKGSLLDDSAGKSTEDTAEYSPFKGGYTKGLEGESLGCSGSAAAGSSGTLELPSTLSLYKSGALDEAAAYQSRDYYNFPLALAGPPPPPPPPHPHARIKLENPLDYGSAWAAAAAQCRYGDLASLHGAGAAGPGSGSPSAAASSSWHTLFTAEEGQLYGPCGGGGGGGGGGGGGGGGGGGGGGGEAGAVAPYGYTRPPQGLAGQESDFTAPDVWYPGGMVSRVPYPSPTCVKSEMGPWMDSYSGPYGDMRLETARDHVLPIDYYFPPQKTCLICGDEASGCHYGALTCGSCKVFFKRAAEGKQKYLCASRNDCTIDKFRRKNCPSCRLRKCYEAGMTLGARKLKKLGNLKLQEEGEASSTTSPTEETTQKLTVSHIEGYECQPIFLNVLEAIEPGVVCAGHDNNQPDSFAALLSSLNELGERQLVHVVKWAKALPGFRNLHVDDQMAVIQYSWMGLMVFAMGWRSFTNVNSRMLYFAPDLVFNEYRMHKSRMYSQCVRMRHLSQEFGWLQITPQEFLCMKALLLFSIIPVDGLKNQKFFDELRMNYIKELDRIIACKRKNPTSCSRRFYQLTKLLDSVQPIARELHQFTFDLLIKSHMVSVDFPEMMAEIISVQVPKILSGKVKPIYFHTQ
Give IC50 for every item shown.
Response body: numeric value in µM, unit text excluded.

Provide IC50 value for the following compound: CCc1nc(OCCO)c2cc(N3C(=S)N(c4ccc(C#N)c(C(F)F)c4)C(=O)C3(C)C)cc(F)c2n1 [Compound 50]
3.45

// fetch IC50 given entry CCc1cc(=O)n2cc(-n3c(=S)n(-c4ccc(C#N)c(C(F)(F)F)c4)c4nccc(C)c43)cc(F)c2n1 [Compound 66]
7.12

Let me know recorded IC50 for CC1(C)C(=O)N(c2ccc(C#N)c(C(F)(F)F)c2)C(=S)N1c1ccc2c(cnn2C2COCC2O)c1 (stereo not shown) [Compound 7] , thanks.
4.26

Look up and state reported IC50 for CCc1cc(=O)n2cc(N3C(=S)N(c4ccc(C#N)c(C(F)(F)F)c4)C(=O)C3(C)C)cc(F)c2n1 [Compound 35]
2.31

Check the records and state IC50 for CCc1cc(=O)n2cc(N3C(=S)N(c4cnc(C#N)c(Cl)c4)C(=O)C3(C)C)cc(F)c2n1 [Compound 75]
0.92

Supply recorded IC50 for CCc1nc(OCCCS(C)(=O)=O)c2cc(N3C(=S)N(c4ccc(C#N)c(C(F)(F)F)c4)C(=O)C3(C)C)cc(F)c2n1 [Compound 22] here.
2.36

Quote IC50 reported for CCc1nc(OCC2(O)CC2)c2cc(N3C(=S)N(c4ccc(C#N)c(C(F)(F)F)c4)C(=O)C3(C)C)cc(F)c2n1 [Compound 36] please.
5.65

These entries and their values trace back to patent US11866433B2.
